biological target: chicken progesterone receptor (Gallus gallus, UniProt P07812); construct: ubiquitin (N, cleaved yes); expressed in transfected cells; assay: β-Galactosidase transcription assay in yeast with expression plasmid and reporter YRpP1; type: cell-based; details: CUP1 promoter driven receptor expression; other data; read-out: concentration sufficient to activate half maximally this transcription unit
Sequence (P07812 whole entry): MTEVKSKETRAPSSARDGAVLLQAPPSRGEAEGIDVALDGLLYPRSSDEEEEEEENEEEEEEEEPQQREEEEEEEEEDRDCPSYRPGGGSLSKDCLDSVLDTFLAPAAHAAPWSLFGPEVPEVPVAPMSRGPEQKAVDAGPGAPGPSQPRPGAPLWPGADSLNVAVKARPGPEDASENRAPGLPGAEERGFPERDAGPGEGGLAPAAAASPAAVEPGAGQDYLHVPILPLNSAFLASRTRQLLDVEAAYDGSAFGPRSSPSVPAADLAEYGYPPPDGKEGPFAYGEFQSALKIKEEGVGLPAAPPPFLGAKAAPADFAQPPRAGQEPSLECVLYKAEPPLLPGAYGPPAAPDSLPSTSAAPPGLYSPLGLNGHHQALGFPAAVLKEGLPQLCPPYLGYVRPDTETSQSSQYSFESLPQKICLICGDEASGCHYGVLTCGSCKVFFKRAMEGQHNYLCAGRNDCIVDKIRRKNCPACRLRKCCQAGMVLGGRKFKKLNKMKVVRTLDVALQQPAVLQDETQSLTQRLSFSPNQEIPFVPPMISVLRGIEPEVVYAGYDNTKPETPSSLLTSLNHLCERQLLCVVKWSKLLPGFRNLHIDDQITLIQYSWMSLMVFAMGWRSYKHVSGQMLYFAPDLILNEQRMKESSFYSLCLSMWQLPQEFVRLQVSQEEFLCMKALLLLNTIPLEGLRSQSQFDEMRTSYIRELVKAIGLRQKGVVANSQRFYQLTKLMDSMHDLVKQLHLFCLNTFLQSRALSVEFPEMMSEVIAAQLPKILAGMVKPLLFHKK
MEASURED PROPERTY: EC50 (nM)
Express the result in nM but write the number alone.

Measured EC50 of O=S(=O)([O-])[O-].[Cu+2] [CuSO4] : 1000

Data provenance: patent EP0752477A2
